# System: MCF7 breast
# Test Description: NCI-60 one-dose screen, 48 h (100 = growth as untreated, 0 = no growth, -100 = all killed)
# Conditions: 10 µM unless noted
Compounds without any hit were thinned out: in the full panel of roughly 83,000, 20% have a hit.
The label depends only on growth: 1.0 if it is at least 60%, 0.0 if it is smaller.

# count of solved cases: 3
# Compound, Assigned Class
data = [
    ("CC1CN(C2CCCCC2)C(=S)N(c2ccccc2)C1=O (stereo not given)", 1.0),
    ("COc1ccc2sc3c(NCCCNCCO)nc4ccccc4c3c(=O)c2c1", 0.0),
    ("CC1=NN(c2ccc(S(=O)(=O)O)cc2)C(=O)C1N=Nc1ccc(-c2ccc(N=Nc3ccc(OS(=O)(=O)c4ccc(C)cc4)cc3)c(S(=O)(=O)O)c2)cc1 (stereo not given)", 1.0),
]

Challenge: Say whether CCOC(=O)Nc1ccc(-c2nc(-c3cccc(OC)c3)c(-c3ccnc(Br)c3)[nH]2)cc1 shows growth of 60% or more.
Response given: 0.0

Challenge: Decide: growth of Cc1ccc(C(=O)N/N=C/c2cccc([N+](=O)[O-])c2)cn1 >= 60%?
Response given: 1.0

Challenge: growth >= 60% for O=C(Nc1ccc(Cl)cc1F)c1cc(Cl)ccc1O ?
Response given: 0.0

Challenge: Does the compound CCN(CC)CCCNc1nc2ccccc2c2c(=O)c3cc(Cl)ccc3sc12 have recorded growth that is 60% or more?
Response given: 0.0

Challenge: Given COc1cccc(-c2nc(-c3ccc(NC(=O)c4ccccc4)cc3)[nH]c2-c2ccnc(Br)c2)c1 , state whether its growth is at least 60%.
Response given: 0.0

Challenge: Reported growth at or above 60%? CSc1nc2ccc(C)cc2cc1/C=N/O
Response given: 1.0

---

# Tested on: BT-549 breast
# Test Description: NCI-60 one-dose screen, 48 h (100 = growth as untreated, 0 = no growth, -100 = all killed)
# Conditions: 10 µM unless noted
# Protocol: Growth inhibition of the BT-549 human tumor cell line is measured as a screen for anti-cancer activity. Cells are grown in 96 well plates and exposed to the test compound for 48 hours. Compounds are tested at a single concentration, which is 10^-5 M for most compounds. The reported endpoint is percent growth (GI% or GIPRCNT), where numbers from 0 - 100% represent growth inhibition, and numbers from -100% - 0 represent cell death. For example, a value of 40 represents 60% growth inhibition. […]
The panel holds about 83,000 compounds, 20% with a hit somewhere; the sample as a whole holds those more often.
Recorded growth by entry
Field format: number, assumed %, no unit text.

Guide cases for growth, answers given:
# Molecule, Target Desc, Measured Attribute, Display Unit, Reading
rows = [
    ("COc1c(B(O)O)cc(F)cc1-c1nc2ccc3[nH]ncc3c2c2c1CCCC2", "BT-549 breast", "growth", "%", -35.5),
    ("[O-][n+]1c2ccccc2[n+]([O-])c2c3ccccc3[nH]c21", "BT-549 breast", "growth", "%", 81.3),
    ("Cc1nn(-c2ccccc2)c(-n2ccnc2)c1/C=N/Nc1nc(-c2ccc(F)cc2)cs1", "BT-549 breast", "growth", "%", 75.3),
    ("O=C1c2ccccc2NC(n2sc3ccccc3c2=O)N1c1ccccc1 (stereo not given)", "BT-549 breast", "growth", "%", 104),
    ("COc1cc(C)c(Cc2cnc(N)nc2N)cc1OC", "BT-549 breast", "growth", "%", 95.4),
    ("CCCCC[C@H](O)C/C=C1/C(=O)C=C[C@@H]1C/C=C\\CCCC(=O)OC", "BT-549 breast", "growth", "%", 35.3),
    ("CCS(=O)(=O)c1ncnc2nc[nH]c12", "BT-549 breast", "growth", "%", 90.9),
    ("Cc1cc(-c2cc(C)c(N)cc2C)c(C)cc1N", "BT-549 breast", "growth", "%", 92.3),
    ("C/C(=C(/c1ccccc1)c1ccc(N2C(=O)c3cccc4c(N5CCN(C)CC5)ccc(c34)C2=O)cc1)c1ccccc1", "BT-549 breast", "growth", "%", 99.6),
]

Challenge: Look up growth for this molecule: O=CN1N=C(c2ccc(Nc3ccnc4cc(Cl)ccc34)cc2)CC1c1ccccc1 (stereo not given)
Response given: 39.1

Origin of the recorded values: PubChem BioAssay (NCI)
